System: T-cell
Test: IL-2 secretion from T-cells co-stimulated with anti-CD3 and anti-CD28 antibody (Biological Example 2)
Format: cell-based, human
Settings: Homo sapiens, T-cell, fold change over baseline; 4 μM Cbl-b inhibitor; primary human total T-cells; read-out: IL-2 secretion Anti-CD3/Anti-CD28 stimulation
MEASUREMENT TYPE: fold induction at 4 µM

**Query** GET /values?readout=fold induction at 4 µM&system=T-cell&item= Cn1cnnc1CC(C)(C)c1cccc(NC(=O)c2cccc(C(F)(F)F)n2)c1
**Result** > 7.5

**Query** GET /values?readout=fold induction at 4 µM&system=T-cell&item= Cc1ccc(C(=O)Nc2cccc([C@@H](C)Cc3nccn3C)c2)nc1C1CC1
**Result** 1.01 to 2.5

**Query** GET /values?readout=fold induction at 4 µM&system=T-cell&item= Cn1cnnc1CC1(c2cccc(NC(=O)c3ccnc(C(F)(F)F)n3)c2)COC1
**Result** 2.51 to 5

**Query** GET /values?readout=fold induction at 4 µM&system=T-cell&item= C[C@H](Cc1nncn1C)c1cccc(NC(=O)c2cc(O[C@@H]3CC[C@@H](O)C3)ccn2)c1 (relative stereo)
**Result** 5 to 7.5

**Query** GET /values?readout=fold induction at 4 µM&system=T-cell&item= C[C@H](Cc1nncn1C)c1cccc(NC(=O)c2ccc(CO)c(C3CC3)n2)c1
**Result** > 7.5

**Query** GET /values?readout=fold induction at 4 µM&system=T-cell&item= Cc1cc(C(=O)Nc2cccc([C@H](C)Sc3nncn3C)c2)nc(C(F)(F)F)c1
**Result** 2.51 to 5

**Query** GET /values?readout=fold induction at 4 µM&system=T-cell&item= C[C@H](Sc1nncn1C)c1cccc(NC(=O)c2cc3c(Cl)cccc3[nH]2)c1
**Result** 2.51 to 5

**Query** GET /values?readout=fold induction at 4 µM&system=T-cell&item= CC(Sc1nncn1C)c1cc(F)cc(N2Cc3c(cccc3C(F)(F)F)C2=O)c1 (centres unmarked)
**Result** 1.01 to 2.5

----------
Tested on: primary human total T-cells
Assay: T-cell activation assessed by cell proliferation (Cell Trace Violet)
Format: cell-based
Conditions: CD3/CD28 stimulation, CD8 T-cells, 10 μM, read-out: % CP (cell proliferation) (CD8)
Record form. Attribute: fold induction at 10 µM. Fill in for each entry.

**Query** Field request: fold induction at 10 µM | item: C[C@H](c1cc2c(c(C(F)(F)F)c1)CN(c1cccc(C3(Cc4nncn4C)COC3)c1)C2=O)N1CC[C@H](F)C1 [Compound 413]
**Result** > 4

**Query** Field request: fold induction at 10 µM | item: Cc1cc(C(=O)Nc2cccc([C@@H](C)Cc3nncn3C)c2)nc(C2CC2)n1 [Compound 325]
**Result** > 4

**Query** Field request: fold induction at 10 µM | item: Cn1cnnc1CC1(c2cccc(NC(=O)c3nc4c(C(F)(F)F)cccc4[nH]3)c2)COC1 [Compound 335]
**Result** 3.01 to 4

**Query** Field request: fold induction at 10 µM | item: C[C@H](Cc1nncn1C)c1cccc(NC(=O)c2cccc(CCO)n2)c1 [Compound 202]
**Result** 2.01 to 3

**Query** Field request: fold induction at 10 µM | item: C[C@H](Cc1nncn1C)c1cccc(N2Cc3c(cc(CN4CC[C@H](F)C4)cc3C(F)(F)F)C2=O)c1 [Compound 399]
**Result** > 4

**Query** Field request: fold induction at 10 µM | item: Cn1cnnc1C(F)(F)[C@](C)(F)c1cccc(N2Cc3c(cc(C(=O)N4CC[C@H](O)C4)cc3C(F)(F)F)C2=O)c1 [Compound 438]
**Result** 3.01 to 4
